Data provenance: patent US20240352105A1

Biological target: T1, recombinant His-tagged Der p2 (dust mite, UniProt P49278 18-146)
T1 construct: also called Der p2-His; Der p2-HIS; not shown: His tag
T1 sequence (looked up): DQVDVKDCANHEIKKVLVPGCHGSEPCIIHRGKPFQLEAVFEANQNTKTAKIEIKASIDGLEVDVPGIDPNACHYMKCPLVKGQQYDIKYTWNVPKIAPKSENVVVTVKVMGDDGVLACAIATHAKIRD
Assay: ELISA, antigen coated
Threshold 8 µg/mL: EC50 strictly smaller gives TRUE, otherwise FALSE.

Some solved entries appear below for comparison.
SDAB22111-1-F9 (VHH, anti-Der p2 alpaca VHH; prokaryotic expression) VHH: QVQLVESGGGLVQPGGSLRLSCAASGRIFRPDGMAWYRQAPGKQREFVAGITRGGRTTYADSVKGRFTISRDNAENTVYLQMNSLKPEDTAVYYCNAKPSAWTLPRYRYDYWGQGTQVTVSS :: TRUE
SDAB22111-1-E10 (VHH, anti-Der p2 alpaca VHH; prokaryotic expression) VHH: QLQLVESGGGMVQPGGSLRLSCAASGTLFSTALMGWYRQAPGKQRTLVASITDGGSTNYVDSVKGRFTISRDNEKNTVYLQMNSLKFEDTAVYYCNAHWGSYDYWGQGTQVVVSS :: TRUE
SDAB22111-1-F9-B03 (VHH, anti-Der p2 alpaca VHH; prokaryotic expression) VHH: EVQLVESGGGLVQPGGSLRLSCAASGRTFSSYAMGWFRQAPGKEREFVAGISRRGSNIYYADSVKGRFTISRDNAKNTVYLQMNSLKPEDTAVYYCNARHPRISTRLYWGQGTQVTVSS :: FALSE

For the next question, use this binder.
Lab note: confirm whether the reported EC50 for this binder is below 8 µg/mL, equality not counting. binder: SDAB22111-1-D3 (VHH, anti-Der p2 alpaca VHH; prokaryotic expression) VHH: QLQLVESGGGLVQPGGSLRLSCVVSGRTLSGHNMGWFRQAPGKEREFVARINSNGGTTRYADAVKGRFTISRDNAKNTAYLQMNSLKSEDTAVYYCRLVGPAGYWGQGTQVTVSS
FALSE
